target: NAMPT (Homo sapiens, UniProt P43490); construct: His tag; host or cells: E. coli; test: Biochemical inhibition assay: NAMPT enzymatic reaction, NMN quantified by mass spectrometry; details: NAMPT enzymatic assay; read-out: Biochem IC50
Sequence (P43490 whole entry): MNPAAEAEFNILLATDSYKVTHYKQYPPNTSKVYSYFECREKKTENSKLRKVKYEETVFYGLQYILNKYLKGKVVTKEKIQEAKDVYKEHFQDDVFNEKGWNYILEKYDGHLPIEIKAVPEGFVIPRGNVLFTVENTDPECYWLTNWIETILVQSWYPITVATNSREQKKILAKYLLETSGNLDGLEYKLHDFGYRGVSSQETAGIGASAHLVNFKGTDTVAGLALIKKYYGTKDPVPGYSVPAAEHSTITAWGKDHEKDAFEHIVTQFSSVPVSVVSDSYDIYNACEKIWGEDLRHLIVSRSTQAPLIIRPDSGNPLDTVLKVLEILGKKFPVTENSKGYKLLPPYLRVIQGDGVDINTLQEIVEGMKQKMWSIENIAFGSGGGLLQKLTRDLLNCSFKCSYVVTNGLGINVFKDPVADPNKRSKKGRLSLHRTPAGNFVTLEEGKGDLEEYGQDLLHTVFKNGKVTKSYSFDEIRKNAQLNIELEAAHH
One threshold, 8 nM, splits the recorded IC50 values: lower ones are Fulfilled, equal or higher ones are Not fulfilled.

Recorded results for 3 compounds are shown here.
O=C(NCc1ccc(S(=O)(=O)c2cccc3cccnc23)cc1)c1cc2ccncc2o1; Fulfilled
O=C(NCc1ccc(S(=O)(=O)c2cccc(C(F)(F)F)c2Cl)cc1)c1cc2cnccc2[nH]1; Not fulfilled
COc1cc(C(F)(F)F)ccc1S(=O)(=O)c1ccc(CNC(=O)c2cnc3nccn3c2)cc1; Fulfilled

# strict comparison: is reported IC50 < 8 nM? input = O=C(NCc1ccc(S(=O)(=O)c2ccc(C(F)(F)F)nc2)cc1)c1cc2ccncc2s1
Fulfilled

# strict comparison: is reported IC50 < 8 nM? input = CN1CCN(c2ccc(S(=O)(=O)c3ccc(CNC(=O)c4ccc5nccn5c4)cc3)cc2)CC1
Fulfilled
